Tested on: PRKG1;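 note: KINOMEscan kinase panel screen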
experimentalSetup: concentration: 1 μM, replicates: in singlicate; n = 1
Here, each record is paired with measured %Inh data.
propertyLabel: %Inh (%)

1. O=C(Nc1n[nH]c2nc(-c3ccccc3)c(Cl)cc12)C1CC1 : 6
2. COc1cc(Nc2nccc(N3CCC(NC(=O)C4COc5ccccc5O4)C3)n2)cc(OC)c1OC (stereo not drawn) : 0
3. Nc1n[nH]c2ncc(-c3ccccc3)cc12 : 0
4. CCc1ccc(-c2ccc3c(c2)-c2nn(C)cc2S(=O)(=O)N3C)cc1 : 0
5. COC(=O)c1c(-c2ccccc2)c2cc(Br)ccc2c(=O)n1Cc1ccc(NC(=O)CCC(=O)O)cc1 : 0
6. O=c1cc(N2CCOCC2)nc2n(Cc3ccc(F)c(Cl)c3)ccn12 : 0
7. COc1ccc(Nc2nccc(N3CCC(NS(=O)(=O)c4ccc(NC(C)=O)cc4)C3)n2)cc1 (stereo not drawn) : 12
8. Cl.c1ccc(Cn2cnc3cc(Nc4ncnc5ccccc45)ccc32)cc1 : 0
9. CCn1c(-c2nonc2N)nc2ccccc21 : 0
10. CCC(=O)c1c(-c2ccccc2)c2cc(Cl)ccc2c(=O)n1Cc1cc(S(C)(=O)=O)n(CC(F)F)n1 : 0
11. Cc1nc(N(C)[C@H]2CN(C(=O)CC#N)CC[C@H]2C)c2cc[nH]c2n1 : 2
12. O=C(NCCNc1ccnc(Nc2ccc(F)cc2)n1)Nc1ccc2c(c1)OCO2 : 0
